The reported numbers originate from the supplement of paper PMC4862054.

- System: CAL-51
- Assay summary: normalised response (% of control), CellTiter-Glo; higher = more viable cells (100 = DMSO, 0 = benzethonium chloride kill control)
- Condition summary: incubation time: 72 h
Measurement label: normalised response (%)
All answers are understood in %, so give the number only.

Compound | Measurement label | Numeric value
COc1cc2c(NC3CCN(C(C)C)CC3)nc(N3CCC(F)(F)CC3)nc2cc1OCCCN1CCCC1 [UNC0642] (1000 nM) | normalised response | 108
CO[C@H]1C[C@@H]2CC[C@@H](C)[C@@](O)(O2)C(=O)C(=O)N2CCCC[C@H]2C(=O)O[C@H]([C@H](C)C[C@@H]2CC[C@@H](OP(C)(C)=O)[C@H](OC)C2)CC(=O)[C@H](C)/C=C(\C)[C@@H](O)[C@@H](OC)C(=O)[C@H](C)C[C@H](C)/C=C/C=C/C=C/1C [Ridaforolimus] (10 nM) | normalised response | 59.9
c1ccc2c(CCNc3ccc(Nc4ccncc4)cc3)c[nH]c2c1 [Serdemetan] (1 nM) | normalised response | 114
COCC1(CO)C(=O)C2CCN1CC2 (centres undefined) [Prima-1 Met] (10 nM) | normalised response | 124

Req: Consider the compound CCOC(=O)CCNc1cc(N2CCc3ccccc3CC2)nc(-c2ccccn2)n1 [GSK-J4] (10 nM) and give its measured normalised response.
Resp: 102

Req: I'd like to know its normalised response. The compound in question is Cc1[nH]c2ccccc2c1CCNCc1ccc(/C=C/C(=O)NO)cc1 [Panobinostat] (1 nM)
Resp: 118

Req: Need normalised response of Cc1cc(Nc2cc(CN3CCOCC3)c3nc(C)c(Cc4ccc(Cl)cc4F)n3n2)n[nH]1 [Gandotinib] (10 nM) , thanks.
Resp: 92

Req: Report normalised response for Cc1ccc(NC(=O)c2ccc(CN3CCN(C)CC3)cc2)cc1Nc1nc(-c2cccnc2)cs1 [Masitinib] (1000 nM) please.
Resp: 80.5

Req: Any idea what normalised response was measured for COc1cc2/c(=N/c3ccc(Br)cc3F)nc[nH]c2cc1OCC1CCN(C)CC1 [Vandetanib] (100 nM) ?
Resp: 83.3

Req: Look up normalised response for this compound: Nc1cc(C(F)(F)F)c(-c2cc(N3CCOCC3)nc(N3CCOCC3)n2)cn1 [Buparlisib] (10 nM)
Resp: 113

Req: I would be grateful if you could share the reported normalised response for Oc1ccc2c(c1)CC[C@H](c1ccccc1)[C@@H]2c1ccc(OCCN2CCCC2)cc1 [Lasofoxifene] (0.1 nM) .
Resp: 86.3

Req: GET /values?readout=normalised response&item= COC(=O)c1ccc2c(c1)NC(=O)/C2=C(\Nc1ccc(N(C)C(=O)CN2CCN(C)CC2)cc1)c1ccccc1 [Nintedanib] (1000 nM)
Resp: 83.2

Req: Suppose we examine the compound CC(C)C[C@@H](C(=O)N[C@H](C(=O)OC1CCCC1)c1ccccc1)[C@H](O)C(=O)NO [Tosedostat] (1000 nM) ; what normalised response value has been reported?
Resp: 91

Req: normalised response for C=C1C[C@@H]2[C@H](CC[C@]3(C)C(=O)CC[C@@H]23)[C@@]2(C)C=CC(=O)C=C12 [Exemestane] (1 nM) ?
Resp: 88.6
